Hello, the source for this data is patent US20060269997A1, in case you need it.

- assay system: T1, Flt-IgG (a chimeric Flt-human Fc molecule) (UniProt P17948 27-758, limits assumed)
- T1 construct: Only described as a chimeric Flt-human Fc molecule; not shown: human Fc
- T1 sequence (P17948 27-758 limits assumed, change not shown): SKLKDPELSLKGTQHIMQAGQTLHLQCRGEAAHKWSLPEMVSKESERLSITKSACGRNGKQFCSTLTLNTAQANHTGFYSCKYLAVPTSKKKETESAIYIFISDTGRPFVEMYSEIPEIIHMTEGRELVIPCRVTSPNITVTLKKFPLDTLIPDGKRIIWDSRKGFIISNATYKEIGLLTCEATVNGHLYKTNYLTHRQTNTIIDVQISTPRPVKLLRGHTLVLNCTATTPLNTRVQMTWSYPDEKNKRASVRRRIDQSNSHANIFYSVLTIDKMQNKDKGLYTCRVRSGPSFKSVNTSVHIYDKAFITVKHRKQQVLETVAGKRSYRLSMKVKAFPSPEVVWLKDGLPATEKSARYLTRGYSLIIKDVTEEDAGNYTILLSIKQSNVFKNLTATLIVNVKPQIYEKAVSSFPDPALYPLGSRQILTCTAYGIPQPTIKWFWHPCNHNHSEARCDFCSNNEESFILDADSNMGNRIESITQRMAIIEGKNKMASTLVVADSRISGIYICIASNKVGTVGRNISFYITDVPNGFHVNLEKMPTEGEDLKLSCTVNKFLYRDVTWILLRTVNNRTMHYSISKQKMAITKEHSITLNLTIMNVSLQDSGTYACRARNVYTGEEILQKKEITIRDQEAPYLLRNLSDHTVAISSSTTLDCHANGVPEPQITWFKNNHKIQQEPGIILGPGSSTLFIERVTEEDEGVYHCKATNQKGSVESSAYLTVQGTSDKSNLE
- assay overview: competition ELISA vs biotinylated native VEGF, Flt-IgG captured by anti-Fc
- Procedure: Receptor binding assays were performed in 96-well immunoplates (Maxisorp, Nunc-Immunoplate, Nalge Nunc International, Rochester, N.Y.). […] Aliquots of the mixture (100 μl) were added to the precoated microtiter wells and the plate was incubated for 2 hours at room temperature. […] Absorbance was read at 450 nm on a Vmax plate reader (Molecular Devices, Menlo Park, Calif.).
readout name: IC50 (nM)
Report only the number, with the unit nM understood.

In the examples that follow, each entry is paired with its recorded IC50.
{"columns": ["binder", "units text", "IC50"],
 "data": [
  ["LK-VRB-5s (ligand, human, UniProt P15692-4 27-135, looked up) APMAEGGGQNHHEVVKFMDVYQRSYCHPIETLVDIFQEYPDEIEYIFKPSCVPLMRCGGCCNSEGRECVPTEESNITMQIMRIKPHQGQHIGEMSFLQHNKCECRPKKD", "nM", 233],
  ["LK-VRB-6s (ligand, human, UniProt P15692-4 27-135, looked up) APMAEGGGQNHHEVVKFMDVYQRSYCHPIETLVDIFQEYPDEIEYIFKPSCVPLMRCGGCCNSEATECVPTEESNITMQIMRIKPHQGQHIGEMSFLQHNKCECRPKKD", "nM", 4]
]}

Proceeding to the next binder to report its IC50.
Inquiry: Sample LK-VRB-4s (ligand, human, UniProt P15692-4 27-135, looked up) APMAEGGGQNHHEVVKIEDVFERSICHPIETLVDIFQEYPDEIEYIFKPSCVPLMRCGGCCNDEGLECVPTEESNITMQIMRIKPHQGQHIGEMSFLQHNKCECRPKKD — what was its IC50?
Reply text: 100
